The reported measurements were obtained from PubChem BioAssay AID2685.

# protocol_text: qHTS Assay for Lipid Storage Modulators in Drosophila S3 Cells;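 as to cell number change: cells counted by Cell Tracker Red CMTPX staining in the red channel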
# experimental_conditions: BODIPY lipid droplet fluorescence, 18-24 h, cells fed with added oleic acid; measured here: cell count max response
# From the text: NIH Molecular Libraries Probe Production Centers Network [MLPCN] NIH Chemical Genomics Center [NCGC] […] Triacsin C (Sigma-Aldrich T-4540), an inhibitor of long-chain fatty acyl CoA synthetase that blocks synthesis of triglycerides, was used as a positive control for lipid under-storage. […] Fluorescence was detected by excitation of the fluorophores with a 488-nm laser on an Acumen Explorer (TTP Lab Tech). […] Cells were detected using channel 3 (575-640 nm) with 5-um width and 100-um depth filters. […]
Hit rate of the full screen: of about 320,000 compounds, about 2,100 (0.66%) were called active. Roughly 53% stayed inconclusive and do not appear here. For the sample, actives were picked, then their nearest neighbours and some compounds at random.
readout_label: cell number change (%)
Answers are plain numbers, in %.

CC(=O)NNc1[nH]c2c(c(=O)c1[N+](=O)[O-])c(=O)n(C)c(=O)n2C ... -5.05

List cell number change for every entry below, keeping the order given.
1. CC(C)NC(=O)c1ccccc1NC(=O)CS(=O)(=O)Cc1ccccc1
2. COC(=O)COc1coc(CN2CCN(c3cccc(Cl)c3)CC2)cc1=O
3. CCN(Cc1ccccc1)c1ccc(/C=N/NC(=S)NC(C)C)cc1

1: 14.5; 2: 12.5; 3: -13

====

# protocol_text: qHTS Assay for Lipid Storage Modulators in Drosophila S3 Cells;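 as to cell number change: cells counted by Cell Tracker Red CMTPX staining in the red channel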
# experimental_conditions: BODIPY lipid droplet fluorescence, 18-24 h, cells fed with added oleic acid; measured here: cell count max response
Hit rate of the full screen: of about 320,000 compounds, about 2,100 (0.66%) were called active. Inconclusive results (about 53%) are left out. The entries come from a sample that favours actives as a whole.
readout_label: cell number change (%)
Answers are plain numbers, in %.

COc1ccc2[nH]cc(CCNC(=O)CCC3CCCCC3)c2c1 ... -11.7
Cc1ccccc1-c1nc(CSc2nc3c(c(=O)[nH]2)CCC3)c(C)o1 ... -21.7
C=C(C)C1CC=C(C)/C(=N\NC(=O)CCC(=O)Nc2ccc(C)c(C)c2)C1 (stereo unspecified) ... 1.45
COc1ccc(C(=O)NCC(=O)NCCc2c[nH]c3ccccc23)cc1OC ... 7.36
COc1ccc2[nH]cc(CCNC(=O)C3CCCCC3)c2c1 ... -11.3

Next up:
Query cell number change for COc1ccccc1CC(=O)NCCc1c[nH]c2ccccc12 10.3

====

# protocol_text: qHTS Assay for Lipid Storage Modulators in Drosophila S3 Cells
# experimental_conditions: BODIPY lipid droplet fluorescence, 18-24 h, cells fed with added oleic acid; series mostly up to 46.1 µM
Hit rate of the full screen: of about 320,000 compounds, about 2,100 (0.66%) were called active. About 53% were inconclusive and are not listed. Calls come from the whole dose curve; as a rule, active = well fitted inhibition curve with a large enough effect in the signal ratio, with a control signal flat (not every such curve was filed as active); inconclusive = small, poorly fitted or top-dose-only effect, or effect the other way, or a change in a side signal; inactive = flat fitted curve, though single readings scatter; the % refers to the signal ratio. For the sample, actives were picked, then their nearest neighbours and some compounds at random.
Return exactly one item of yes for active, no for inactive

Examples with answers:
COc1ccc(S(=O)(=O)N(C)c2ccc(C(=O)N3CCC(C(N)=O)CC3)cc2)cc1 ... no
CCOC(=O)C1(Cc2ccc(Cl)cc2)CCN(C(=O)c2cc(C)nc(C)n2)CC1 ... no
Cc1ccc(S(=O)(=O)CCc2nc3ccccc3s2)cc1C ... yes

Dear all, I need the recorded test outcome for COCCCN(C(=O)c1ccccc1)c1nc(-c2ccc(OC)cc2)cs1 , thank you. yes

Dear all, I need the recorded test outcome for c1ccc(CCNCC2COc3ccccc3O2)cc1 (stereo not drawn) , thank you. no
